# measured_target: T1, BMP-9 (UniProt Q9UK05 320-429)
# T1 construct: also called bone morphogenetic protein 9
# T1 sequence (looked up): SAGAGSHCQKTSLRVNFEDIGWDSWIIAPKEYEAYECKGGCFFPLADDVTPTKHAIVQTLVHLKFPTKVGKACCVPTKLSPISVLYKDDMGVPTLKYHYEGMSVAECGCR
# method: SPR (Biacore 8K), Fc protein captured on anti-human IgG, ligand injected
Kindly state Kd for each of the entries shown.
Please state the figure in nM; there is no need to write the unit.

Query: Entry ActRIIB-A7 (SEQ ID NO: 125) chimera-Fc protein (Fc fusion, Tested as chimera-Fc protein; not shown: linker (if any) and Fc domain) GRGEAETRECIYYNANWELERTNQSGLERCEGEQDKRLHCYASWRNSSGTIELVKKGCWLDDFNCYDRQECVATEENPQVYFCCCEGNMCNERFTHLPEAGGPEVTYEPPPTAPT has what Kd?
Response: 0.0191

Query: Entry ActRIIA-A3 (SEQ ID NO: 106) chimera-Fc protein (Fc fusion, Tested as chimera-Fc protein; not shown: linker (if any) and Fc domain) GAILGRSETQECLFFNANWEKDRTNQTGVEPCEGEQDKRRHCFATWKNISGSIEIVKQGCWLDDINCYDRTDCVEKKDSPEVYFCCCEGNMCNEKFSYFPEMEVTQPTS has what Kd?
Response: 18

Query: Entry ActRIIB-A8 (SEQ ID NO: 126) chimera-Fc protein (Fc fusion, Tested as chimera-Fc protein; not shown: linker (if any) and Fc domain) GRGEAETRECIYYNANWELERTNQSGLERCEGEQDKRLHCYASWRNSSGTIELVKKGCWLDDFNCYDRQECVATEENPQVYFCCCEGNFCNERFTHLPEMEVTQPTS has what Kd?
Response: 0.074

Query: Entry ActRIIB-B7 (SEQ ID NO: 115) chimera-Fc protein (Fc fusion, Tested as chimera-Fc protein; not shown: linker (if any) and Fc domain) GRGEAETRECIYYNANWELERTNQSGLERCEGEQDKRLHCYASWRNSSGTIELVKKGCWLDDFNCYDRQECVATEENPQVYFCCCEGNFCNEKFSYFPEAGGPEVTYEPPPTAPT has what Kd?
Response: 0.0202

Query: Entry ActRIIA-B3 (SEQ ID NO: 97) chimera-Fc protein (Fc fusion, Tested as chimera-Fc protein; not shown: linker (if any) and Fc domain) GAILGRSETQECLFFNANWEKDRTNQTGVEPCYGDKDKRLHCYASWRNSSGSIEIVKQGCWLDDINCYDRTDCVEKKDSPEVYFCCCEGNMCNEKFSYFPEMEVTQPTS has what Kd?
Response: 13.6

Query: Entry ActRIIB-A2 (SEQ ID NO: 121) chimera-Fc protein (Fc fusion, Tested as chimera-Fc protein; not shown: linker (if any) and Fc domain) GRGEAETRECIYYNANWEKDRTNQSGLERCEGEQDKRLHCYASWRNSSGTIELVKKGCWLDDFNCYDRQECVATEENPQVYFCCCEGNFCNERFTHLPEAGGPEVTYEPPPTAPT has what Kd?
Response: 0.0166

Query: Entry ActRIIA-B7 (SEQ ID NO: 100) chimera-Fc protein (Fc fusion, Tested as chimera-Fc protein; not shown: linker (if any) and Fc domain) GAILGRSETQECLFFNANWEKDRTNQTGVEPCYGDKDKRRHCFATWKNISGSIEIVKQGCWLDDINCYDRTDCVEKKDSPEVYFCCCEGNMCNERFTHLPEMEVTQPTS has what Kd?
Response: 58.9

Query: Entry ActRIIA-B1B7 (SEQ ID NO: 101) chimera-Fc protein (Fc fusion, Tested as chimera-Fc protein; also called ActRIIA-B1β7; not shown: linker (if any) and Fc domain) GAILGRSETQECIYYNANWEKDRTNQTGVEPCYGDKDKRRHCFATWKNISGSIEIVKQGCWLDDINCYDRTDCVEKKDSPEVYFCCCEGNMCNERFTHLPEMEVTQPTS has what Kd?
Response: 77.2
